Experiment: qHTS assay to identify small molecule antagonists of the vitamin D receptor (VDR) signaling pathway - cell viability counter screen (AID 743225); also: nearly all actives have a fitted effect of over 50% in size; also: potency is read from the fitted curve at half-maximal effect
Settings: VDR-bla HEK293T viability, CellTiter-Glo luminescence, 16 h; series mostly up to 61 µM
Excerpt: U.S. Tox21 Program National Center for Advancing Translational Sciences [NCATS] NIH Chemical Genomics Center [NCGC] U.S. Environmental Protection Agency [EPA] National Institutes of Environmental Health Sciences [NIEHS] National Toxicology Program [NTP] U.S. Food and Drug Administration [FDA] Tox21 Assay Overview: The vitamin D receptor (VDR), a member of nuclear hormone receptor superfamily, plays a critical role in calcium homeostasis and bone metabolism. […]
Inconclusive results are not listed. Calls of active or inactive are those of the source. Calls follow the shape of the dose curve; as a rule, active = well fitted cell-killing curve with a large enough effect in the repeat runs; inconclusive = weak or mixed curves, or effect the other way; inactive = no such curve, though single readings can be large or run the other way.
RECORDED ENDPOINT: Potency

Some compounds with known Potency results, for comparison:
O=[N+]([O-])c1cc(Cl)c(Cl)c(Cl)c1Cl = inactive
O=C(NO)C1(NS(=O)(=O)c2ccc(Oc3ccc(F)cc3)cc2)CCOCC1 = inactive
C[C@H](CCC(=O)O)[C@H]1CC[C@H]2[C@@H]3CC[C@@H]4C[C@H](O)CC[C@]4(C)[C@H]3CC[C@]12C = inactive
Oc1cccc2cc3cccc(O)c3c(O)c12 = inactive
CNC(=O)c1ccccc1 = inactive

input: Please supply the value of reported Potency for the item NC(=NCCCCCCN=C(N)/N=C(\N)Nc1ccc(Cl)cc1)/N=C(\N)Nc1ccc(Cl)cc1
output: 35.3 µM (active) [middle of 4 runs]

input: Please supply the value of reported Potency for the item CC(C)(C)c1ccc(C(=O)O)cc1
output: inactive

input: Please supply the value of reported Potency for the item [Cl][Bi]([Cl])([c]1ccccc1)([c]1ccccc1)[c]1ccccc1
output: 2.44 µM (active)

Provenance of the data: PubChem BioAssay (Tox21)
